- targetOrTestSystem: Nuclear receptor ROR-gamma (Mus musculus) (UniProt P51450)
- Sequence (P51450 whole entry, looked up): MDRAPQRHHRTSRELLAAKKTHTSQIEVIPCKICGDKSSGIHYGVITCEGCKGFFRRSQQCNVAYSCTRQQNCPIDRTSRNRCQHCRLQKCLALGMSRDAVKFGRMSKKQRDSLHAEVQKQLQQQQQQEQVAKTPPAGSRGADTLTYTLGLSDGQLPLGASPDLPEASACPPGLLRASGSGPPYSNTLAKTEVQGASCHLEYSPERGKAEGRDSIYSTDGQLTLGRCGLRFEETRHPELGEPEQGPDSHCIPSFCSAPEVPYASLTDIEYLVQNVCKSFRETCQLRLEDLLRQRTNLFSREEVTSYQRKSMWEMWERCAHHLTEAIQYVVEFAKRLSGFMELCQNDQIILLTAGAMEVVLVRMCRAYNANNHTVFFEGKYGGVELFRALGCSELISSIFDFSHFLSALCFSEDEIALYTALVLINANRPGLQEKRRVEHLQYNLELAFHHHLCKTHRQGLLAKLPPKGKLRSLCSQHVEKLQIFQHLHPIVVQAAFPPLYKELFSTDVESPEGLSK
- procedureSummary: qHTS for inhibitors of ROR gamma transcriptional activity; further: nearly all actives have a fitted effect of over 60% in size
- measurementSetup: Drosophila S2 Gal4-RORgamma UAS-luciferase reporter, 20 h; series mostly up to 53.6 µM
- Text: NIH Molecular Libraries Probe Production Network [MLPCN] NIH Chemical Genomics Center [NCGC] […] Small molecule inhibitors of ROR gamma activity are detected by a decrease in luciferase reporter activity. […]
Among all 310,000 compounds or so, about 17,000 (5.5%) were called active. Not shown: some 11% with an inconclusive outcome. The call rests on the fitted dose curve; in most records, active means well fitted inhibition curve with a large enough effect; inconclusive means small, poorly fitted or top-dose-only effect, or effect the other way; inactive means no such curve, though single readings can be large or run the other way. The sample as a whole holds a higher share of actives than the screen did.
Outcome codes: yes = active, no = inactive

molecule: S=c1[nH]nc(-c2cc(-c3ccccc3)n[nH]2)n1/N=C/c1c2ccccc2cc2ccccc12
group: yes

molecule: Oc1ccccc1/C=N/n1c(-c2cccs2)n[nH]c1=S
group: yes

molecule: CC1CCN(C(=S)c2ccc(-c3ccc(Cl)cc3Cl)o2)CC1
group: yes

molecule: COc1ccc(NC(=O)N2CCCC(C(=O)Nc3ccccc3OC)C2)cc1 (stereo not drawn)
group: no

molecule: S=C1NC(c2ccccc2)=NCN1c1ccc(Br)cc1
group: yes

molecule: CC(=O)N1CCSc2ccc(S(=O)(=O)N3CCC(C)CC3)cc21
group: no

molecule: CCCCN(CCCC)CCCNC(=O)CN1C(=O)COc2ccc(S(=O)(=O)N3CCC(C)CC3)cc21
group: no

molecule: CC(NC(=O)c1ccco1)C(=O)Nc1nc(-c2ccccn2)cs1 (stereo not drawn)
group: yes

molecule: Cc1ccc2c(c1)N(CC(=O)N1CCC(C)CC1)C(=O)c1cccnc1O2
group: no

molecule: Cc1nc(=O)c(-c2ccccc2)c(C)n1-c1ccc(Br)cc1
group: no

molecule: Cc1ccc(F)c(NC(=O)CCOc2ccccc2C)c1
group: no

molecule: COc1cccc(N(CC(=O)NC2CCCC2)C(=O)CCCC(=O)Nc2ccccn2)c1
group: no

molecule: CC(C)CNS(=O)(=O)c1ccc(CCC(=O)NCc2ccc(Cl)cc2)cc1
group: no

molecule: COc1ccccc1N(CC(=O)N/N=C(\C)c1ccccc1O)S(=O)(=O)c1ccc(C)cc1
group: yes

molecule: COc1ccc(C(=O)Nc2c(Cl)cc(Cl)cc2C(=O)N2CCC(C)CC2)cc1
group: no

molecule: Cc1cc(C)cc(N(CC(=O)NC2CCCC2)C(=O)CCC(=O)Nc2nccs2)c1
group: no

molecule: O=C(NCc1ccncc1)C(=O)NCC1OCCN1S(=O)(=O)c1ccc(Br)cc1 (stereo not drawn)
group: no

molecule: COc1ccc(S(=O)(=O)N(CC(=O)N/N=C/c2ccccc2C(=O)O)c2ccccc2OC)cc1
group: no

molecule: CC1CCN(C(=S)c2cccc(O)c2)CC1
group: no

molecule: Cc1ccc(-c2n[nH]c(=S)n2/N=C/c2cc3c(cc2[N+](=O)[O-])OCO3)cc1
group: no

molecule: O=C(Cc1cccs1)N/N=C/c1ccc(OCc2ccccc2)cc1
group: no

molecule: Cc1ccc(Cn2c(C)c3cnn(CC(=O)NCc4ccccn4)c(=O)c3c2C)cc1
group: no

molecule: S=c1[nH]c(-c2cccs2)cn1-c1ccccc1
group: yes

molecule: COC(=O)[C@H](C)NC(=O)Nc1ccc(OC(F)(F)F)cc1
group: no

molecule: CCOC(=O)C1CN(S(=O)(=O)c2ccc(OC)cc2)c2cc(Cl)ccc2O1 (stereo not drawn)
group: no

molecule: O=S(=O)(Nc1ccccc1Br)c1cccs1
group: no

molecule: CCCCN1C(=S)NC[C@@H]1C(C)CC (stereo partly drawn)
group: yes

molecule: Cc1nc2ccc(S(=O)(=O)N(C)CC(=O)NC(C)c3ccccc3)cc2s1 (stereo not drawn)
group: no

molecule: O=c1[nH]c(-c2cccs2)nc2ccccc12
group: no

molecule: CC(NC(=O)c1ccco1)c1ccc2c(c1)OCO2 (stereo not drawn)
group: no

molecule: COc1cc(/C=C/C2=CC(C)(C)NC(=S)N2)cc(OC)c1OC
group: yes

molecule: COc1cc(/C=N/NC(=O)c2ccoc2C)ccc1OCCN1CCCCC1
group: no

molecule: O=C(NCCc1c[nH]c2ccccc12)C1CCN(Cc2ccc(Br)cc2)CC1
group: no

molecule: Cc1ccc2nc(-c3ccc(NC(=O)CN(C)S(=O)(=O)c4ccccc4)cc3)sc2c1
group: yes

molecule: O=C(N/N=C/c1ccc(OCc2ccccc2)cc1)c1ccc(O)cc1
group: yes

molecule: COc1cc(C2C(C(=O)c3ccco3)=C(O)C(=O)N2c2cc(C)on2)ccc1OCc1ccccc1 (stereo not drawn)
group: no

molecule: C=CCN1CN(S(=O)(=O)c2ccc(OC)cc2)c2nc3ccccc3nc21
group: no

molecule: COCC(=O)Nc1c(C(=O)N2CCCC2)oc2ccccc12
group: no
